Test: In vitro microsomal stability, rat
Format: in vitro ADME
Settings: Rat Microsome, same batch, 5 min

COMPOUND	Microsomal stability, % remaining
CC(C)(C)C[C@H]1N[C@@H](C(=O)NCCC(C)(O)CO)[C@H](c2cccc(Cl)c2)[C@@]12C(=O)Nc1cc(Cl)c(F)cc12 (some centres unmarked) [MI-758]	96.52%
CC(C)(C)C[C@H]1N[C@@H](C(=O)NCC[C@H](O)CN2CCCC2)[C@H](c2cccc(Cl)c2)[C@@]12C(=O)Nc1cc(Cl)c(F)cc12 [MI-519-28]	92.34%
CC(O)C(O)CCNC(=O)[C@@H]1N[C@H](CC(C)(C)C)[C@]2(C(=O)Nc3cc(Cl)c(F)cc32)[C@H]1c1cccc(Cl)c1 (some centres unmarked) [MI-519-31]	80.22%
CC(C)(C)C[C@H]1N[C@@H](C(=O)NCC[C@H](O)CN2CC[C@@H](O)C2)[C@H](c2cccc(Cl)c2)[C@@]12C(=O)Nc1cc(Cl)c(F)cc12 [MI-519-29]	93.42%
CC(C)(C)C[C@H]1N[C@@H](C(=O)NCC[C@H](O)CNC(C)(C)C)[C@H](c2cccc(Cl)c2)[C@@]12C(=O)Nc1cc(Cl)c(F)cc12 [MI-519-24]	102.16%

* * *

Test: In vitro microsomal stability, human
Format: in vitro ADME
Conditions: 30 min
In this section we review reported % of compound remaining when incubated in human liver microsomes with NADPH values for a set of compounds.
READOUT: % of compound remaining when incubated in human liver microsomes with NADPH

>>> print(df.to_string())
                                   compound  reported_result
0  CC(C)(C)C[C@H]1N[C@@H](C(=O)NC2CC(O)C2)[C@H](c2cccc(Cl)c2F)[C@@]12C(=O)Nc1cc(Cl)ccc12 (stereo partly shown)           49.28%
1  CC(C)(C)C[C@H]1N[C@@H](C(=O)N[C@H]2C[C@@H](O)C2)[C@H](c2cccc(Cl)c2F)[C@@]12C(=O)Nc1cc(Cl)ccc12 (stereo in doubt)           31.21%
2  CC(O)C(O)CCNC(=O)[C@@H]1N[C@H](CC(C)(C)C)[C@]2(C(=O)Nc3cc(Cl)c(F)cc32)[C@H]1c1cccc(Cl)c1 (stereo partly shown)           22.75%
3  CC(C)(C)C[C@H]1N[C@@H](C(=O)N[C@H]2C[C@@](C)(O)C2)[C@H](c2cccc(Cl)c2F)[C@@]12C(=O)Nc1cc(Cl)ccc12           61.26%

* * *

Assay: In vitro microsomal stability, human
Assay type: in vitro ADME
Conditions: human liver microsomes, NADPH, 60 min
Below, each entry is listed alongside its reported % of compound remaining when incubated in human liver microsomes with NADPH.
READOUT: % of compound remaining when incubated in human liver microsomes with NADPH (%)

COMPOUND	REPORTED RESULT
CC(C)(C)C[C@H]1N[C@@H](C(=O)NCC[C@H](O)CN2CC[C@@H](O)C2)[C@H](c2cccc(Cl)c2)[C@@]12C(=O)Nc1cc(Cl)c(F)cc12 [MI-519-29]	35.28
CC(C)(C)C[C@H]1N[C@@H](C(=O)NC2CCC(O)CC2)[C@H](c2cccc(Cl)c2F)[C@@]12C(=O)Nc1cc(Cl)ccc12 (stereo partly drawn) [MI-773]	28.77
CC(C)(C)C[C@H]1N[C@@H](C(=O)N[C@H]2CC[C@@H](O)C2)[C@H](c2cccc(Cl)c2)[C@@]12C(=O)Nc1cc(Cl)c(F)cc12 [MI-519-27]	0.77
CC(C)(C)C[C@H]1N[C@@H](C(=O)NCC[C@H](O)CN2CCCC2)[C@H](c2cccc(Cl)c2)[C@@]12C(=O)Nc1cc(Cl)c(F)cc12 [MI-519-28]	53.78
CC(C)(C)C[C@H]1N[C@@H](C(=O)NC2CCC(NS(C)(=O)=O)CC2)[C@H](c2cccc(Cl)c2F)[C@@]12C(=O)Nc1cc(Cl)ccc12 (stereo partly drawn) [MI-772]	56.87
CC(O)C(O)CCNC(=O)[C@@H]1N[C@H](CC(C)(C)C)[C@]2(C(=O)Nc3cc(Cl)c(F)cc32)[C@H]1c1cccc(Cl)c1 (stereo partly drawn) [MI-519-31]	8.56
